Can you tell me IC50 for the items I'm about to list?
molecular target: MKNK1 (Homo sapiens, UniProt Q9BUB5, T385D); construct: GST (N); purchased Carna Biosciences 02-145; host or cells: insect cells (baculovirus expression system); test: MKNK1 kinase high ATP assay (TR-FRET-based); assay type: biochemical; details: Table 2d; 2 mM ATP, 15 min preincubation
Sequence (Q9BUB5 1-424 isoform Q9BUB5-2 T344D): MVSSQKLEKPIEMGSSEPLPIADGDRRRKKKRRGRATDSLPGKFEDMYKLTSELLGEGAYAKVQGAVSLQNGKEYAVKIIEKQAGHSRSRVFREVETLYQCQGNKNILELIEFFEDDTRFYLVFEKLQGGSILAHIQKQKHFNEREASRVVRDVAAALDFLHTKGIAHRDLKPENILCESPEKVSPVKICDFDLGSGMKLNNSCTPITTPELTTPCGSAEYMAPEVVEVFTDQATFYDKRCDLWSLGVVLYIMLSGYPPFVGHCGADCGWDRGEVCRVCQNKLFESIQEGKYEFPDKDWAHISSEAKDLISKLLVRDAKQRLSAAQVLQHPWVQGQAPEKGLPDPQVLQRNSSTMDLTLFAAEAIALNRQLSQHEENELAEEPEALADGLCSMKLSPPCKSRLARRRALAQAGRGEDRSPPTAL

Which IC50 is reported for this compound? `CCNc1nccc2oc(-c3cnc4ccc(OC[C@H]5CCC(=O)N5)nn34)cc12`
2 nM

Next compound up: COc1nccc2oc(-c3cnc4ccc(OCCC5CCC(=O)N5)nn34)cc12 (stereo not shown)
26 nM

Now the same for `COc1nccc2oc(-c3cnc4ccc(OC[C@@H]5CCC(=O)N5)nn34)cc12`
28 nM

Item: COc1nccc2oc(-c3cnc4ccc(OCC5CCCC(=O)N5)nn34)cc12 (stereo not shown)
9 nM

Please do the same for `CC(=O)N1CCC[C@H]1CCOc1ccc2ncc(-c3cc4cnccc4o3)n2n1` as well.
12 nM

Another compound: `CC(C)Oc1nccc2oc(-c3cnc4ccc(OC[C@H]5CCC(=O)N5)nn34)cc12`
4 nM

Can you check `COc1nccc2oc(-c3cnc4ccc(OC[C@H]5CCC(=O)N5)nn34)cc12` next?
8 nM
